Consider the following compounds; for each one, report its relative potency.
- Measured Target: Angiotensin-converting enzyme (Oryctolagus cuniculus) (UniProt P12822)
- Sequence (P12822 whole entry): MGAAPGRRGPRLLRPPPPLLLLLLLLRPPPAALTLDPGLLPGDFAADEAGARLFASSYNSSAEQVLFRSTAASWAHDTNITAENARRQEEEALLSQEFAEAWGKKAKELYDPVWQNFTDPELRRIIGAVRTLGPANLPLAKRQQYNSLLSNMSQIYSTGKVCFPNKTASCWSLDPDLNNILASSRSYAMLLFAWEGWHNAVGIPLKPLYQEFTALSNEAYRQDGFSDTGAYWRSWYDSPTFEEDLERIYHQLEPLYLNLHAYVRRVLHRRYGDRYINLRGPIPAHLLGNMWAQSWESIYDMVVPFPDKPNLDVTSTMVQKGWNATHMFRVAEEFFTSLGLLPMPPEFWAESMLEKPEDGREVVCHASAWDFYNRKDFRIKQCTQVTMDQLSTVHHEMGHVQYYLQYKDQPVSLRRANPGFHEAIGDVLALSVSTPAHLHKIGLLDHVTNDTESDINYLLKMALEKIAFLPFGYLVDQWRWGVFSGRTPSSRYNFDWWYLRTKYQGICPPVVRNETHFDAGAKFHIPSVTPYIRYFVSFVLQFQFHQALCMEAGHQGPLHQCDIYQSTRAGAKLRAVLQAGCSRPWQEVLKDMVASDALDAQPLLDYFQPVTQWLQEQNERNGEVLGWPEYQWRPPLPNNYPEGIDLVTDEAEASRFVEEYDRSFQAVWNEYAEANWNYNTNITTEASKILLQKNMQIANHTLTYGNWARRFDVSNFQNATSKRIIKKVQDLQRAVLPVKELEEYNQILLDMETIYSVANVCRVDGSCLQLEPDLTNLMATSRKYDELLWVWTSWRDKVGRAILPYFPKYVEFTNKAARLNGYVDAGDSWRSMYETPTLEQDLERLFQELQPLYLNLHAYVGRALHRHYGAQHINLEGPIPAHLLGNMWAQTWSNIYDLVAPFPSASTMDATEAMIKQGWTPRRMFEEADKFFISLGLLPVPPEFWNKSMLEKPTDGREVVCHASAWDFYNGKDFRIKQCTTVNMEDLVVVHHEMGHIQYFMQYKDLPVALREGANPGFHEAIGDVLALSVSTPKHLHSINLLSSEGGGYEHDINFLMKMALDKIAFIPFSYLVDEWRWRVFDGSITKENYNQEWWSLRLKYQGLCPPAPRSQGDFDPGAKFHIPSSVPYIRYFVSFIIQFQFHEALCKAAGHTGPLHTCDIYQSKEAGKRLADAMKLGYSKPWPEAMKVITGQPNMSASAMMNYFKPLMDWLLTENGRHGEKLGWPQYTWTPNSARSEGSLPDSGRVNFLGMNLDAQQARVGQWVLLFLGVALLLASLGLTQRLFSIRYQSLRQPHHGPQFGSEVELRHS
- Assay Comment: In vitro inhibition of Angiotensin I converting enzyme relative to captopril(=1)

Guide cases for relative potency, answers given:
compound="CO[C@@H]1C[C@@H](C(=O)O)N(C(=O)C(C)CS)C1 (some centres not stated)" assay_metric="relative potency" measured=0.5
compound=O=C(O)[C@@H]1CC2(CN1C(=O)CCS)SCCS2 assay_metric="relative potency" measured=2.6
compound="COC1(OC)C[C@@H](C(=O)O)N(C(=O)C(C)CS)C1 (some centres not stated)" assay_metric="relative potency" measured=0.9
compound="CC(CS)C(=O)N1CC2(C[C@H]1C(=O)O)OCCO2 (some centres not stated)" assay_metric="relative potency" measured=1

Could I get relative potency for every one of these entries?
1. CO[C@H]1C[C@@H](C(=O)O)N(C(=O)C(C)CS)C1 (some centres not stated)
2. O=C(O)[C@@H]1CC2(CN1C(=O)CCS)SCCCS2
3. CO/N=C1\C[C@@H](C(=O)O)N(C(=O)C(C)CS)C1 (some centres not stated)

Result:
[0.53, 1, 1]

The measurements presented in this section are drawn from ChEMBL document CHEMBL1124094.
